Listed below: pest or weed control at 200 ppm values for each entry.
System: Colletotricum lagenarium
Experiment: Cucumber Anthracnose greenhouse one-day protectant test
Format: in vivo
Settings: Cucumis sativus, 24 h, cucumber plants, one-day protectant test, 200 ppm application rate; read-out: COLLLA percent control rating

Example results:
compound	pest or weed control at 200 ppm
O=c1cnc(-c2csc(-c3ccccc3)c2)nn1CC(F)(F)F	50 to 79%
O=C1CNC(c2cccc(/C=C3/CCc4ccccc43)c2)=NN1CC(F)(F)F	0 to 49%
CCCCN1N=C(c2ccc(Oc3cccnc3)cc2)NCC1=O	0 to 49%
O=C1CNC(c2cccc(-c3ccc(Cl)s3)c2)=NN1CC(F)(F)F	0 to 49%
CS(=O)(=O)OCCN1N=C(c2ccc(Cl)nc2)NCC1=O	0 to 49%

Query string: Look up and state reported pest or weed control at 200 ppm for Cc1cc(C)cc(C2=NN(CC(F)(F)F)C(=O)C(OCc3ccccc3)N2)c1 (stereo not shown)
Result string: 80 to 100%

Query string: Give the measured pest or weed control at 200 ppm for `O=C1CNC(c2ccccc2)=NN1CCO`
Result string: 0 to 49%

Query string: State, in one line, measured pest or weed control at 200 ppm of `O=C1CNC(c2cc(Cl)cc(Cl)c2)=NN1CCO`
Result string: 0 to 49%

Query string: Please supply the value of reported pest or weed control at 200 ppm for the item `Cc1cc(C)cc(C2=NN(CCOc3ccccc3)C(=O)CN2)c1`
Result string: 50 to 79%

Query string: Query pest or weed control at 200 ppm for O=C1C(SC2CCCCC2)NC(c2ccc(Br)s2)=NN1CC(F)(F)F (stereo not shown)
Result string: 50 to 79%

Query string: Give the reported pest or weed control at 200 ppm for this compound. `C[Si](C)(C)C#CCn1nc(-c2ccc(F)c(Br)c2)ncc1=O`
Result string: 50 to 79%

* * *

Tested on: Pyricularia oryzae
Experiment: whole plant or invertebrate
Format: in vivo
Conditions: 24 h, read-out: PYRIOR percent control rating
measure: pest or weed control at 200 ppm

Solved cases below.
compound	measure	reported
O=c1cnc(-c2cccc(Cc3ccccc3)c2)nn1CC(F)(F)F [Compound 91]	pest or weed control at 200 ppm	80 to 100%
O=C1CNC(c2cccc(OCc3ccccc3)c2)=NN1c1cccc(Br)c1 [Compound 21]	pest or weed control at 200 ppm	80 to 100%
O=C1CNC(c2cc(Cl)cc(Cl)c2)=NN1Cc1ccccn1 [Compound 6]	pest or weed control at 200 ppm	80 to 100%
Cc1cc(C)cc(-c2ncc(=O)n(CCOc3ccccc3)n2)c1 [Compound 86]	pest or weed control at 200 ppm	80 to 100%
O=C1CNC(c2ccc(-c3cc(Cl)cc(Cl)c3)nc2)=NN1CCF [Compound 34]	pest or weed control at 200 ppm	80 to 100%

Query string: Give pest or weed control at 200 ppm for O=C1CNC(c2ccccc2)=NN1CCO [Compound 4]
Result string: 0 to 49%

Query string: Entry O=c1cnc(-c2cc(Br)cc(-c3ccsc3)c2)nn1CCc1ccccc1 [Compound 83] needs its pest or weed control at 200 ppm filled in; supply it.
Result string: 0 to 49%

* * *

pest or weed control at 200 ppm values for the compounds below.
Tested on: Colletotricum lagenarium
Test: Cucumber Anthracnose greenhouse one-day protectant test
Assay type: in vivo
Details: Cucumis sativus, 24 h, cucumber plants, one-day protectant test, 200 ppm application rate; read-out: COLLLA percent control rating

# example entries with known answers
compound	pest or weed control at 200 ppm
O=C1CNC(c2cc(Cl)cc(Cl)c2)=NN1CO	0 to 49%
O=C1C(SC2CCCCC2)NC(c2cccc(C(=NOCc3ccccc3)c3ccccc3)c2)=NN1CC(F)(F)F (centres unmarked)	0 to 49%
O=C1CNC(c2cccc(/C=C\c3ccccc3)c2)=NN1CC(F)(F)F	0 to 49%

Query string: Return value of pest or weed control at 200 ppm for input `Cc1cc(C)cc(C2=NN(CCOC(=O)Nc3ccc4c(c3)OCO4)C(=O)CN2)c1` , no commentary.
Result string: 50 to 79%

Query string: Note pest or weed control at 200 ppm for the compound shown: `O=C1CNC(c2cc(Cl)cc(Cl)c2)=NN1Cc1c(F)c(F)c(F)c(F)c1F`
Result string: 80 to 100%

Query string: Look up pest or weed control at 200 ppm of `O=c1cnc(-c2ccc(Oc3cccnc3)cc2)nn1CC(F)(F)F` and report it.
Result string: 80 to 100%

Query string: Supply measured pest or weed control at 200 ppm of `O=C1CNC(c2cccc(O)c2)=NN1CC(F)(F)F` in your reply.
Result string: 0 to 49%

Query string: Quickly give me recorded pest or weed control at 200 ppm for `CCCCn1nc(-c2cc(-c3ccsc3)cc(-c3ccsc3)c2)ncc1=O`
Result string: 0 to 49%

* * *

The entries below are paired with their reported pest or weed control at 200 ppm.
Test system: Pyricularia oryzae
Assay: whole plant or invertebrate
Assay type: in vivo
Conditions: 24 h, read-out: PYRIOR percent control rating

Check out these entries, answers already filled in.
compound	pest or weed control at 200 ppm
O=C1CNC(c2ccc(Oc3cccnc3)cc2)=NN1CC(F)(F)F	50 to 79%
Cc1cc(C)cc(C2=NN(Cc3ccccn3)C(=O)CN2)c1	0 to 49%
O=C1C(SC2CCCCC2)NC(c2cccc(-c3ccccc3OC(F)(F)F)c2)=NN1CC(F)(F)F (centres unmarked)	80 to 100%

Query string: Quickly give me recorded pest or weed control at 200 ppm for `O=C1CNC(c2cccc(-c3ccc(Oc4ccccc4)cc3)c2)=NN1CC(F)(F)F`
Result string: 0 to 49%

Query string: Supply pest or weed control at 200 ppm value. Item: `O=c1cnc(-c2ccc(F)c(Br)c2)nn1Cc1ccc(Cl)nc1`
Result string: 80 to 100%

* * *

Tested on: Colletotricum lagenarium
Assay: Cucumber Anthracnose greenhouse one-day protectant test
Assay type: in vivo
Conditions: Cucumis sativus, 24 h, cucumber plants, one-day protectant test, 200 ppm application rate; read-out: COLLLA percent control rating
The compounds listed here are annotated with their pest or weed control at 200 ppm.

smilesRepr	pest or weed control at 200 ppm
O=C1CNC(c2cccc(C(=NOCc3ccccc3)c3ccccc3)c2)=NN1CC(F)(F)F	0 to 49%
Cc1cc(C)cc(C2=NN(Cc3ccccn3)C(=O)CN2)c1	50 to 79%

Continue with the compound presented below.
Query string: Tell me its pest or weed control at 200 ppm on Colletotricum lagenarium: `O=C1CNC(c2cc(Cl)cc(Cl)c2)=NN1C(=O)C(F)(F)F`
Result string: 50 to 79%

* * *

Tested on: Pyricularia oryzae
Assay: whole plant or invertebrate
Assay type: in vivo
Conditions: 24 h, read-out: PYRIOR percent control rating
measure: pest or weed control at 200 ppm

molecule	pest or weed control at 200 ppm
Cc1ccccc1-c1cccc(C2=NN(CC(F)(F)F)C(=O)C(SC3CCCCC3)N2)c1 (stereo not drawn)	80 to 100%
O=C1CNC(c2cc(Br)cc(-c3ccsc3)c2)=NN1CCc1ccccc1	50 to 79%

Query string: Please report the measured pest or weed control at 200 ppm for `O=C1CNC(c2cccc(OCc3ccccc3)c2)=NN1CC(F)(F)F`
Result string: 80 to 100%

Query string: Kindly indicate its recorded pest or weed control at 200 ppm. Item: `O=c1cnc(-c2ccc(-c3ccc(Cl)s3)nc2)nn1CC(F)(F)F`
Result string: 0 to 49%

Query string: Using the record for `CCCCN1N=C(c2cc(-c3ccsc3)cc(-c3ccsc3)c2)NCC1=O` , state its measured pest or weed control at 200 ppm.
Result string: 0 to 49%

Query string: Output measured pest or weed control at 200 ppm for this item: `O=C1CNC(c2cccc(C(=NOCc3ccccc3)c3ccccc3)c2)=NN1CC(F)(F)F`
Result string: 80 to 100%

Query string: Look up and state reported pest or weed control at 200 ppm for O=C1C(SC2CCCCC2)NC(c2cccc(/C=C\c3ccccc3)c2)=NN1CC(F)(F)F (stereo not drawn)
Result string: 80 to 100%

Query string: Please report the measured pest or weed control at 200 ppm for `O=C1CNC(c2cccc(Oc3cc(C(F)(F)F)cc(C(F)(F)F)n3)c2)=NN1CC(F)(F)F`
Result string: 0 to 49%

Query string: Tell me pest or weed control at 200 ppm reported for `O=C1CNC(c2ccc(-c3ccc(C(F)(F)F)cc3)nc2)=NN1CCF`
Result string: 80 to 100%
